Tested on: production of amyloid beta protein Aβ(1-42) (γ-secretase) in human WT-APP overexpressing CHO cells
Assay: Cell-Based γ-Secretase Assay with ELISA Readout
Details: CHO, 24 h, read-out: Aβ 42B IC50 (Geometric Mean of 2-6 Determinations)
pIC50: −log10 of the molar value.
observationType: pIC50

compoundstring=Cc1cn(-c2ccc3n(c2=O)CCN(CCOc2ccccc2[Si](C)(C)C)C3=O)cn1 observationtype=pIC50 valuemeasured=7.52
